method-description: solvent given as SMILES
setup-conditions: in CC(C)=O
For each record, write down the corresponding fluorescence lifetime.
Numbers only, in ns.

Check out these entries, answers already filled in.
CCC1=C(C)C2=C(C)c3c(C)c(CC)c(C)n3[B-](F)(F)[N+]2=C1C	5.92
N#C/C=C/c1ccc2ccc3cccc4ccc1c2c34	3.1

For each of the compounds below, state fluorescence lifetime.
1. C(=C\N1CCCC1)/c1nc2ccccc2nc1-c1ccccc1
2. CC1(C)C(/C=C/C2=C(c3ccc(C(=O)O)cc3)C(=C/C=C3/N(CCCCS(=O)(=O)[O-])c4ccc(S(=O)(=O)[O-])cc4C3(C)C)/CCC2)=[N+](CCCCS(=O)(=O)[O-])c2ccc(S(=O)(=O)[O-])cc21
3. CCN(CC)c1ccc(/C=C/c2ccc(-c3ccc(/C=C/c4ccc(N(CC)CC)cc4)s3)s2)cc1
4. CCN(CC)c1ccc2cc(/C(Cl)=C/C=C/C(=C(C#N)C#N)c3ccc4c(c3)c3ccccc3n4CC)c(=O)oc2c1
5. C#CCNC1=C2C(C)=CC(C)=[N+]2[B-](F)(F)n2c(C)cc(C)c21

[6.88, 1.02, 1.11, 0.47, 0.61]
